# TL1A Binding Level (Late) listing for each entry below
# target.or.test.system: T1, human TL1A extracellular domain with N-terminal HIS and FLAG tag (human, UniProt O95150 72-251)
# T1 construct: whole entry named. ~70 kDa fraction purified by gel filtration
# T1 sequence: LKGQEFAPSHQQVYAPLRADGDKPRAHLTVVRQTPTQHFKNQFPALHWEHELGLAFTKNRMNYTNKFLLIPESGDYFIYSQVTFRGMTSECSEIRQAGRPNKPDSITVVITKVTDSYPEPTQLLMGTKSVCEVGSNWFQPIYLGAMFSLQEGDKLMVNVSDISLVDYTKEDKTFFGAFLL
# test.name: SPR run 2; supernatant on Protein A; TL1A 10 ug/mL; timepoint 220
Report the figure in RU without appending any unit label.

A selection of reference data follows.
# binder, TL1A Binding Level (Late) / RU
records = [
    ("320-201 (antibody, human IgG1, name in Kabat numbering, V domains shown, human IgG1, lambda) VH: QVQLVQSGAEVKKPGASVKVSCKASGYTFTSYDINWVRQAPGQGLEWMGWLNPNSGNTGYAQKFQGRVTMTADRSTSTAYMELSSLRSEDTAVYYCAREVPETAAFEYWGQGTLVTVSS VL: QSVLTQPPSVSGAPGQRVTISCTASSSDIGAGLGVHWYQQLPGTAPKLLIEGYYNRPSGVPDRFSGSKSGTSASLTITGLLPEDEGDYYCQSYDGTLSALFGGGTKLTVLG", 252),
    ("320-238 (antibody, human IgG1, name in Kabat numbering, V domains shown, human IgG1, lambda) VH: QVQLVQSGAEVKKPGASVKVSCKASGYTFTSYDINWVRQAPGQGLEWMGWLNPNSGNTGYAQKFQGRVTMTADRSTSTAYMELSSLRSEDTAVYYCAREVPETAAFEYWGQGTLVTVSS VL: QSVLTQPPSVSGAPGQRVTISCTSSSSLIGAGLGVHWYQQLPGTAPKLLIEGYYNRPSGVPDRFSGSKSGTSASLTITGLLPEDEGDYYCQSYDGTLSALFGGGTKLTVLG", 191),
    ("320-197 (antibody, human IgG1, name in Kabat numbering, V domains shown, human IgG1, lambda) VH: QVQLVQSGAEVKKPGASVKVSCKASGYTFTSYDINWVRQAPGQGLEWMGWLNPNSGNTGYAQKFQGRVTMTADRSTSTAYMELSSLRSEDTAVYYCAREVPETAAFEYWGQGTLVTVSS VL: QSVLTQPPSVSGAPGQRVTISCKSSSSDIGAGLGVHWYQQLPGTAPKLLIEGYYNRPSGVPDRFSGSKSGTSASLTITGLLPEDEGDYYCQSYDGTLSALFGGGTKLTVLG", 232),
]

So what does the record say about TL1A Binding Level (Late) for 320-212 (antibody, human IgG1, name in Kabat numbering, V domains shown, human IgG1, lambda) VH: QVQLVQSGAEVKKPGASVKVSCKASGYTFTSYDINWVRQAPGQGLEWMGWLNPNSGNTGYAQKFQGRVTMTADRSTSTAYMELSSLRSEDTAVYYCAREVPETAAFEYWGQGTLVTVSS VL: QSVLTQPPSVSGAPGQRVTISCTSHSSDIGAGLGVHWYQQLPGTAPKLLIEGYYNRPSGVPDRFSGSKSGTSASLTITGLLPEDEGDYYCQSYDGTLSALFGGGTKLTVLG ?
205

So what does the record say about TL1A Binding Level (Late) for 320-227 (antibody, human IgG1, name in Kabat numbering, V domains shown, human IgG1, lambda) VH: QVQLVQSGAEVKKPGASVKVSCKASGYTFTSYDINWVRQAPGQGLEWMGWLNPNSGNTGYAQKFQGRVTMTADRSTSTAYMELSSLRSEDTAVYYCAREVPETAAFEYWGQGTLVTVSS VL: QSVLTQPPSVSGAPGQRVTISCTSSSDDIGAGLGVHWYQQLPGTAPKLLIEGYYNRPSGVPDRFSGSKSGTSASLTITGLLPEDEGDYYCQSYDGTLSALFGGGTKLTVLG ?
218

So what does the record say about TL1A Binding Level (Late) for 320-241 (antibody, human IgG1, name in Kabat numbering, V domains shown, human IgG1, lambda) VH: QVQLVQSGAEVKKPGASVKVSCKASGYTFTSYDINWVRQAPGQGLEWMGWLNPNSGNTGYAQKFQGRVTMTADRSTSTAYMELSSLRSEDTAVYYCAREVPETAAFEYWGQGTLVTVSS VL: QSVLTQPPSVSGAPGQRVTISCTSSSSDAGAGLGVHWYQQLPGTAPKLLIEGYYNRPSGVPDRFSGSKSGTSASLTITGLLPEDEGDYYCQSYDGTLSALFGGGTKLTVLG ?
122

So what does the record say about TL1A Binding Level (Late) for 320-240 (antibody, human IgG1, name in Kabat numbering, V domains shown, human IgG1, lambda) VH: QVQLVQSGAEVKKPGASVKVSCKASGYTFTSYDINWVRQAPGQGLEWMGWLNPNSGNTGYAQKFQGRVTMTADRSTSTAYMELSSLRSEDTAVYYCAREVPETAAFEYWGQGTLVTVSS VL: QSVLTQPPSVSGAPGQRVTISCTSSSSYIGAGLGVHWYQQLPGTAPKLLIEGYYNRPSGVPDRFSGSKSGTSASLTITGLLPEDEGDYYCQSYDGTLSALFGGGTKLTVLG ?
196

So what does the record say about TL1A Binding Level (Late) for 320-229 (antibody, human IgG1, name in Kabat numbering, V domains shown, human IgG1, lambda) VH: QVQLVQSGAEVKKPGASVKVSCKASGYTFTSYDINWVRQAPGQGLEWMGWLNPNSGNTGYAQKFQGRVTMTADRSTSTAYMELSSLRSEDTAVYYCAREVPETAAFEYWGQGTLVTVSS VL: QSVLTQPPSVSGAPGQRVTISCTSSSKDIGAGLGVHWYQQLPGTAPKLLIEGYYNRPSGVPDRFSGSKSGTSASLTITGLLPEDEGDYYCQSYDGTLSALFGGGTKLTVLG ?
251

So what does the record say about TL1A Binding Level (Late) for 320-204 (antibody, human IgG1, name in Kabat numbering, V domains shown, human IgG1, lambda) VH: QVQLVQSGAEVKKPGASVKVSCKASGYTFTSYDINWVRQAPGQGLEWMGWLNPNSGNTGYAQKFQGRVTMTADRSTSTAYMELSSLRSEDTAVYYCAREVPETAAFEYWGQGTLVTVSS VL: QSVLTQPPSVSGAPGQRVTISCTHSSSDIGAGLGVHWYQQLPGTAPKLLIEGYYNRPSGVPDRFSGSKSGTSASLTITGLLPEDEGDYYCQSYDGTLSALFGGGTKLTVLG ?
155

So what does the record say about TL1A Binding Level (Late) for 320-247 (antibody, human IgG1, name in Kabat numbering, V domains shown, human IgG1, lambda) VH: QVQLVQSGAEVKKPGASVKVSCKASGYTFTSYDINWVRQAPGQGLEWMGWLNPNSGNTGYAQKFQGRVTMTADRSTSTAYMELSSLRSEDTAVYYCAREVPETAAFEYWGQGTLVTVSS VL: QSVLTQPPSVSGAPGQRVTISCTSSSSDLGAGLGVHWYQQLPGTAPKLLIEGYYNRPSGVPDRFSGSKSGTSASLTITGLLPEDEGDYYCQSYDGTLSALFGGGTKLTVLG ?
162
